Measurement Protocol: Stability investigation of the lyophilisate (visual inspection, reverse HPLC)
Format: physicochemical
Experimental Context: storage 25° C./60% rH, T = 6 M
Description: For that the lyophilisate was stored up to 24 months at 2 to 8° C. and up to 6 months at 25° C. at 60% relative humidity. Stability was investigated at different time points during that period. In particular the appearance, contents, as well as purity of the cyclic peptides were investigated. For that laboratory-common analytical processes were used, such as e.g. visual inspection and reverse HPLC.
Measure: Purity of lyophilisate (stability study) (%)
Field: numeric (%). Do not append units.

C[C@@H]1NC(=O)CNC(=O)[C@H](CCC(=O)O)NC(=O)[C@@H]2CCCN2C(=O)[C@H]([C@@H](C)O)NC(=O)[C@H](CCC(=O)O)NC(=O)[C@H](CCCNC(=N)N)NC(=O)[C@H](CCC(N)=O)NC(=O)CNC(=O)[C@@H](N)CSSC[C@@H](C(=O)O)NC(=O)[C@H](Cc2ccc(O)cc2)NC(=O)[C@H](Cc2c[nH]c3ccccc23)NC(=O)[C@@H]2CCCN2C(=O)[C@H](CCCCN)NC(=O)[C@H](C)NC(=O)[C@H](CCC(=O)O)NC1=O; 95
C[C@@H]1NC(=O)CNC(=O)[C@H](CCC(=O)O)NC(=O)[C@@H]2CCCN2C(=O)[C@H]([C@@H](C)O)NC(=O)[C@H](CCC(=O)O)NC(=O)[C@H](CCCNC(=N)N)NC(=O)[C@H](CCC(N)=O)NC(=O)CNC(=O)CCCNC(=O)C[C@@H](C(=O)O)NC(=O)[C@H](Cc2ccc(O)cc2)NC(=O)[C@H](Cc2c[nH]c3ccccc23)NC(=O)[C@@H]2CCCN2C(=O)[C@H](CCCCN)NC(=O)[C@H](C)NC(=O)[C@H](CCC(=O)O)NC1=O; 98

Next, consider the following molecule.
The molecule C[C@@H]1NC(=O)CNC(=O)[C@H](CCC(=O)O)NC(=O)[C@@H]2CCCN2C(=O)[C@H]([C@@H](C)O)NC(=O)[C@H](CCC(=O)O)NC(=O)[C@H](CCCNC(=N)N)NC(=O)[C@H](CCC(N)=O)NC(=O)CNC(=O)CCNC(=O)CC[C@@H](C(=O)O)NC(=O)[C@H](Cc2ccc(O)cc2)NC(=O)[C@H](Cc2c[nH]c3ccccc23)NC(=O)[C@@H]2CCCN2C(=O)[C@H](CCCCN)NC(=O)[C@H](C)NC(=O)[C@H](CCC(=O)O)NC1=O showed Purity of lyophilisate (stability study) equal to 98
